Cited source for all entries: BindingDB's records for doi:10.1074/jbc.M113.476234

# measurement-target: Kappa-type opioid receptor (Homo sapiens, UniProt P41145)
# Sequence (P41145 whole entry): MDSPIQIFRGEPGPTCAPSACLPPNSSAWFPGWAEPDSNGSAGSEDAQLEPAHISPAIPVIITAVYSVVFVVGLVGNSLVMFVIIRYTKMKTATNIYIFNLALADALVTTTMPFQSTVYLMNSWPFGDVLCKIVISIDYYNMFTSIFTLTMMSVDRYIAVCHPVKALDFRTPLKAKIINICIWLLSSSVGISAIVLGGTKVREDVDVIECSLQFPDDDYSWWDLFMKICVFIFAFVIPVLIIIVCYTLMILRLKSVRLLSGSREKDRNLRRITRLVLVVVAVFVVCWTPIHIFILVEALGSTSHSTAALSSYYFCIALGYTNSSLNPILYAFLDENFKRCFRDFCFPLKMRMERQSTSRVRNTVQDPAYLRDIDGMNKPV
# assay-remarks: β-Arrestin2 Assay

compound-smiles	IC50 [nM]
NC(N)=Nc1ccc2[nH]c3c(c2c1)C[C@@]1(O)[C@@H]2Cc4ccc(O)c5c4[C@@]1(CCN2CC1CC1)[C@H]3O5	0.8
